Experiment: qHTS assay for small molecule agonists of the antioxidant response element (ARE) signaling pathway - cell viability counter screen (AID 743203); also: nearly all actives have a fitted effect of over 55% in size
Details: ARE-bla HepG2 viability, CellTiter-Glo luminescence, 16 h; series mostly up to 73.3 µM
Records with an inconclusive call do not appear. Activity calls are given as the source filed them. Calls follow the shape of the full dose curve.
Possible outcomes: active, inactive

| Compound | Assigned category |
| --- | --- |
| O=C1O[C@H]([C@H](O)CO)C(O)=C1O | inactive |
| NC(=O)c1ncn([C@@H]2O[C@H](CO)[C@@H](O)[C@H]2O)n1 | inactive |
| COC(=O)/C=C\C(=O)OC | inactive |
| c1cnc2c(c1)ccc1cccnc12 | active |
| Cc1ccccc1Cl | inactive |
| CO[Si](CCCNCCN)(OC)OC | inactive |
| CCCCCCCCCCCC(=O)N(C)CC(=O)O | inactive |
| O=Cc1ccc(CO)o1 | inactive |
| CC(=O)c1nccs1 | inactive |
| O=C(NCC1CCCCN1)c1cc(OCC(F)(F)F)ccc1OCC(F)(F)F (stereo not given) | inactive |
| CC(COCC(C)OC(=O)c1ccccc1)OC(=O)c1ccccc1 (stereo not given) | inactive |
| CC(O)CNCC(C)O (stereo not given) | inactive |
| OCC(O)CS (stereo not given) | inactive |
| CCCCC(=O)O | inactive |
| NC(=O)NC(N)=O | inactive |

---

Test: A CellTox Green Cytotoxicity Assay to monitor cytotoxicity in HEK293 cells - 40 hour (AID 1224871); also: % is scaled to controls: 0 for no effect and ±100 for the full control effect; nearly all actives have a fitted effect of over 45% in size
Settings: CellTox Green fluorescence; series mostly up to 76.8 µM
Inconclusive results are not listed. The source made the active and inactive calls. Calls follow the shape of the dose curve; as a rule, active = well fitted activation curve with a large enough effect in the repeat runs; inconclusive = weak or mixed curves; inactive = flat fitted curve, though single readings scatter.

| Molecule | cytotoxicity increase |
| --- | --- |
| O=C1OC(=O)c2c(Cl)c(Cl)c(Cl)c(Cl)c21 | inactive |
| CCOC(=O)c1ccc(O)cc1 | inactive |
| N[C@@H](Cc1cc(I)c(Oc2ccc(O)c(I)c2)c(I)c1)C(=O)O | inactive |
| C[Si](C)(C)N[Si](C)(C)C | inactive |
| CCc1cccc(CC)c1N | inactive |
| CC(C)(CO)CO | inactive |
| CC[N+](CC)(CC(=O)Nc1c(C)cccc1C)Cc1ccccc1 | inactive |
| CC1(C)[C@@H](O[C@H]2O[C@H](C(=O)O)[C@@H](O)[C@H](O)[C@H]2O[C@@H]2O[C@H](C(=O)O)[C@@H](O)[C@H](O)[C@H]2O)CC[C@]2(C)[C@H]3C(=O)C=C4[C@@H]5C[C@@](C)(C(=O)O)CC[C@]5(C)CC[C@@]4(C)[C@]3(C)CC[C@@H]12 | inactive |
| Cc1ccccc1C=O | inactive |
| COC(=O)OC | inactive |
| CCCCC(=O)O | inactive |
| CC(=O)Nc1ccc(CC(=O)O)cc1 | inactive |
| O=c1c(O)c(-c2ccc(O)c(O)c2)oc2cc(O)cc(O)c12 | inactive |
| N#CCC(=O)O | inactive |
| Nc1nc(N)c2nc(-c3ccccc3)c(N)nc2n1 | inactive |
| CCCCCCCCCCCC(=O)N(C)CC(=O)O | 3.46% [at 6.97 µM] (inactive) |
| CCCN(CCC)C(=O)SCC | inactive |
| CC(=O)OCc1ccc2c(c1)OCO2 | inactive |
| O=C1CCCCCCCCCCC1 | inactive |
| Cc1ccc(C(C)C)cc1 | inactive |
| COc1ccccc1[N+](=O)[O-] | inactive |
| OC1CCCCC1 | inactive |
| CCCCCCCCO | inactive |
| O=C(O)C1=NN(c2ccc(S(=O)(=O)O)cc2)C(=O)C1 | inactive |
| CC/C(C)=N/O | inactive |
| COC(=O)/C=C\C(=O)OC | inactive |
| COc1c2ccoc2cc2oc(=O)ccc12 | inactive |
| CC(=O)OC(C)(C)C1CC=C(C)CC1 (centres undefined) | inactive |
| Nc1cccc(N)n1 | inactive |

---

Assay: A CellTox Green Cytotoxicity Assay to monitor cytotoxicity in HepG2 cells - 16 hour (AID 1224876); also: % is scaled to controls: 0 for no effect and ±100 for the full control effect; nearly all actives have a fitted effect of over 45% in size
Settings: CellTox Green fluorescence; series mostly up to 76.8 µM
Records with an inconclusive call do not appear. Activity calls are given as the source filed them. The call rests on the fitted dose curve; in most records, active means well fitted activation curve with a large enough effect in the repeat runs; inconclusive means weak or mixed curves; inactive means flat fitted curve, though single readings scatter.

| Smiles data | outcome |
| --- | --- |
| CC(=O)c1nccs1 | inactive |
| Cc1ccccc1Cl | inactive |
| Cc1ncc(CO)c(CO)c1O | inactive |
| O=c1c(O)c(-c2ccc(O)c(O)c2)oc2cc(O)cc(O)c12 | inactive |
| O=C1O[C@H]([C@H](O)CO)C(O)=C1O | inactive |
| C=CC(C)(C)C | inactive |
| C[n+]1ccn(CCO)c1 | inactive |
| Cc1cccc(C)c1[N+](=O)[O-] | inactive |

---

Experiment: qHTS assay to test for compound auto fluorescence at 535 nm (green) in HepG2 cell free culture (AID 720686); also: % is scaled to controls: 0 for no effect and ±100 for the full control effect
Conditions: Cell-free medium, green autofluorescence 485/535 nm; series mostly up to 91.3 µM
Calls of active or inactive are those of the source. Calls come from the whole dose curve; as a rule, active = well fitted curve in the direction sought with a large enough effect in the repeat runs; inconclusive = weak or mixed curves; inactive = flat fitted curve, though single readings scatter.

| Compound | outcome |
| --- | --- |
| O=C1C(N(CO)C(=O)NCO)N(CO)C(=O)N1CO (configuration not stated) | inactive |
| Cc1ccc(Cl)cc1 | inactive |
| OCCOCCOCCOCCOCCO | inactive |
| CCCN(CCC)C(=O)SCC | inactive |
| CC(=O)OC[C@H]1O[C@@](COC(C)=O)(O[C@H]2O[C@H](COC(C)=O)[C@@H](OC(C)=O)[C@H](OC(C)=O)[C@H]2OC(C)=O)[C@@H](OC(C)=O)[C@@H]1OC(C)=O | inactive |
| NC(=O)NC(N)=O | inactive |
| COc1cc(NC(=O)CC(C)=O)c(OC)cc1Cl | inactive |
| CC/C=C(\C(=O)N[C@@H]1C(=O)N2C(C(=O)OCOC(=O)C(C)(C)C)=C(COC(N)=O)CS[C@H]12)c1csc(N)n1 | inactive |
| CCCCCCCCC(=O)O | inactive |
| O=C1O[C@H]([C@H](O)CO)C(O)=C1O | inactive |
| CCCCC(=O)O | inactive |
| Cc1cc(C)c(O)c(C)c1 | inactive |

---

Experiment: qHTS assay to identify small molecule agonists of the hypoxia (HIF-1) signaling pathway - cell viability counter screen (AID 1224844); also: % is scaled to controls: 0 for no effect and ±100 for the full control effect; nearly all actives have a fitted effect of over 50% in size
Conditions: HRE-bla ME-180 viability, CellTiter-Glo luminescence, 17 h; series mostly up to 76.8 µM
Results filed as inconclusive are left out. Calls of active or inactive are those of the source. Calls come from the whole dose curve.
Measured parameter: outcome

| Smiles data | Endpoint result |
| --- | --- |
| Cc1cc(C)cc(O)c1 | inactive |
| CC(=O)Nc1ccc(CC(=O)O)cc1 | inactive |
| COCN(COC)c1nc(N(COC)COC)nc(N(COC)COC)n1 | inactive |

---

Test: qHTS assay for small molecule disruptors of the mitochondrial membrane potential (AID 720635)
Details: HepG2 mitochondrial membrane potential, Mito-MPS dye ratio; series mostly up to 83.2 µM
Results filed as inconclusive are left out. Calls of active or inactive are those of the source. Calls come from the whole dose curve; as a rule, active = well fitted inhibition curve with a large enough effect in the signal ratio in the repeat runs; inconclusive = weak or mixed curves, or effect the other way; inactive = flat fitted curve, though single readings scatter; the % refers to the signal ratio.
Labels: Yes for active, No for inactive

| Compound | Assigned category |
| --- | --- |
| O=C(Cl)c1ccc(C(=O)Cl)cc1 | No |
| CC(=O)OCCC(C)C | No |
| OCc1ccc(Cl)cc1Cl | No |
| C[Si](C)(C)N[Si](C)(C)C | No |
| N[C@@H](Cc1cc(I)c(Oc2ccc(O)c(I)c2)c(I)c1)C(=O)O | Yes |
| CCCCCCC(=O)O | No |
| COc1c(Cl)ccc(Cl)c1C(=O)O | No |
| O=C1O[C@H]([C@H](O)CO)C(O)=C1O | No |
| CC(=O)OCc1ccc2c(c1)OCO2 | No |
| O=C1C(N(CO)C(=O)NCO)N(CO)C(=O)N1CO (stereo not given) | No |
| COC(=O)CCCCC(=O)OC | No |
| CC/C(C)=N/O | No |
| NC(=O)c1ncn([C@@H]2O[C@H](CO)[C@@H](O)[C@H]2O)n1 | No |
| CS(=O)(=O)c1ccc(Cl)cc1 | No |
| Cc1ncc(CO)c(CO)c1O | No |
| CC(=O)CC(=O)N(C)C | No |
| CC(=O)OC[C@H]1O[C@@](COC(C)=O)(O[C@H]2O[C@H](COC(C)=O)[C@@H](OC(C)=O)[C@H](OC(C)=O)[C@H]2OC(C)=O)[C@@H](OC(C)=O)[C@@H]1OC(C)=O | No |
| Cc1nnc(NS(=O)(=O)c2ccc(N)cc2)s1 | No |
| OCCOCCOCCOCCOCCO | No |
| CC(=O)c1nccs1 | No |
| CN1Cc2c(N)cccc2C(c2ccccc2)C1 (stereo not given) | No |
| OB(O)O | No |
| CCOC(=O)CC(=O)OCC | No |
| C[n+]1ccn(CCO)c1 | No |
| CC1=CC(=O)CC(C)(C)C1 | No |
| CC(=O)OC(C)(C)C1CC=C(C)CC1 (stereo not given) | No |
| CCCCC(CC)COC(=O)c1ccc(C(=O)OCC(CC)CCCC)cc1 (stereo not given) | No |
| O=C1CCCCCCCCCCC1 | No |
| Cc1ccncc1 | No |
| CN=C(NC#N)NCCSCc1nc[nH]c1C | No |
